- Tested on: KRAS-mutant PDC tumor spheroid with HUVEC/MSC, viability
- methodSummary: Anticancer human tumor 327498-153-R-J2-PDC patient-derived uterine carcinosarcoma cell line growth inhibition [KRAS2]; active = viability on the fitted dose curve at most 10% of control; inactive = the rest
- conditionDescription: second compound 1 µM; first compound 3.16 µM
Answer with one of the outcomes active, inactive

Q) Which outcome did this test record for the molecule CC(=O)OC12COC1CC(O)C1(C)C(=O)C(O)C3=C(C)C(OC(=O)C(O)C(NC(=O)OC(C)(C)C)c4ccccc4)CC(O)(C(OC(=O)c4ccccc4)C21)C3(C)C (stereo not given) + CNCc1ccccc1-c1csc(C(C)Nc2nc(C)nc3cc(OC)c(OC)cc23)c1 ?
A) active

Q) Test call, this molecule: CC1COCCN1c1cc(-c2ccnn2C)c2ccnc(-c3ccn[nH]3)c2n1 (stereo not given) + CNCc1ccccc1-c1csc(C(C)Nc2nc(C)nc3cc(OC)c(OC)cc23)c1
A) active

Q) Can you look up the reported call for CC(=O)OC12COC1CC(O)C1(C)C(=O)C(O)C3=C(C)C(OC(=O)C(O)C(NC(=O)OC(C)(C)C)c4ccccc4)CC(O)(C(OC(=O)c4ccccc4)C21)C3(C)C (stereo not given) + C=CC(=O)N1CCN(c2nc(=O)n(-c3c(C)ccnc3C(C)C)c3nc(-c4c(O)cccc4F)c(F)cc23)C(C)C1 for me?
A) active

Q) For Cn1nccc1Nc1nccc(-c2cc3c(s2)C(C)(C)N(CCN2CCOCC2)C3=O)n1 + C=CC(=O)N1CCN(c2nc(=O)n(-c3c(C)ccnc3C(C)C)c3nc(-c4c(O)cccc4F)c(F)cc23)C(C)C1 , what call appears in the results of this test?
A) inactive

Q) Dear all, I need the recorded test outcome for CC1COCCN1c1cc(-c2ccnn2C)c2ccnc(-c3ccn[nH]3)c2n1 (stereo not given) + CC1OCC2(CCN(c3cnc(Sc4ccnc(N)c4Cl)c(N)n3)CC2)C1N , thank you.
A) active

Q) Status in this test for COc1cc2nccc(Oc3ccc(NC(=O)C4(C(=O)Nc5ccc(F)cc5)CC4)cc3)c2cc1OC + CNCc1ccccc1-c1csc(C(C)Nc2nc(C)nc3cc(OC)c(OC)cc23)c1 ?
A) inactive

Q) Test call, this molecule: COC(=O)c1ccc2c(C(=Nc3ccc(N(C)C(=O)CN4CCN(C)CC4)cc3)c3ccccc3)c(O)[nH]c2c1 + COc1cc2nc(C)nc(NC(C)c3cc(N)cc(C(F)(F)F)c3)c2cc1OC1CCOC1
A) inactive

Q) Call for entry CCNC(=O)CC1N=C(c2ccc(Cl)cc2)c2cc(OC)ccc2-n2c(C)nnc21 (stereo not given) + CNCc1ccccc1-c1csc(C(C)Nc2nc(C)nc3cc(OC)c(OC)cc23)c1 :
A) inactive

Q) // return assay outcome for O=C(c1cc(Cc2n[nH]c(=O)c3ccccc23)ccc1F)N1CCN(C(=O)C2CC2)CC1 + COc1cc2nc(C)nc(NC(C)c3cc(N)cc(C(F)(F)F)c3)c2cc1OC1CCOC1
A) inactive

Q) What did the test return for COc1cc(Nc2ncc3c(n2)-c2ccc(Cl)cc2C(c2c(F)cccc2OC)=NC3)ccc1C(=O)O + CC1OCC2(CCN(c3cnc(Sc4ccnc(N)c4Cl)c(N)n3)CC2)C1N ?
A) active

---

- Test system: KRAS-mutant PDC tumor spheroid with HUVEC/MSC, viability
- methodSummary: Anticancer human tumor 327498-153-R-J2-PDC cell line growth inhibition [KRAS2]; active means viability on the fitted dose curve at most 10% of control; inactive means the rest;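 note: spheroids exposed to agents for seven days before reading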
- conditionDescription: second compound 1 µM; first compound 1 µM
Your answer must be one of the following: active, inactive

Q) Which outcome was assigned to COc1cc(Nc2ncc3c(n2)-c2ccc(Cl)cc2C(c2c(F)cccc2OC)=NC3)ccc1C(=O)O + C=CC(=O)N1CCN(c2nc(OCC3CCCN3C)nc3c2CCN(c2cccc4cccc(C)c24)C3)CC1CC#N in this test?
A) active

Q) So what was the verdict on CC(=O)OC12COC1CC(O)C1(C)C(=O)C(O)C3=C(C)C(OC(=O)C(O)C(NC(=O)OC(C)(C)C)c4ccccc4)CC(O)(C(OC(=O)c4ccccc4)C21)C3(C)C (stereo not drawn) + CNCc1ccccc1-c1csc(C(C)Nc2nc(C)nc3cc(OC)c(OC)cc23)c1 in this test?
A) active

Q) What outcome does the record of this test show for CC1OCC2(CCN(c3cnc(Sc4ccnc(N)c4Cl)c(N)n3)CC2)C1N (stereo not drawn) + C=CC(=O)N1CCN(c2nc(OCC3CCCN3C)nc3c2CCN(c2cccc4cccc(C)c24)C3)CC1CC#N ?
A) inactive
